# testSummary: Half life in Sprague-Dawley rat at 3 mg/kg, po measured upto 24 hrs by LC-MS analysis
# Type: ADME, organism-based
# studyConditions: in vivo
measurementKind: half-life (h)
Report the figure in h without appending any unit label.

[[record]]
smilesstring = "CC(C)n1cc(C(=O)Nc2ccc(Oc3ccnc(NC(=O)C4CC4)c3)c(F)c2)c(=O)n(-c2ccc(F)cc2)c1=O"
measurementkind = "half-life"
numericvalue = 13.8


Now consider a different compound.
**Query** What does the data say about its half-life? Entry: CC(C)n1cc(C(=O)Nc2ccc(Oc3ccnc(-c4cn[nH]c4)c3)c(F)c2)c(=O)n(-c2ccc(F)cc2)c1=O
**Result** 18.2

====

# systemTested: Ribosomal protein S6 kinase alpha-1 (Homo sapiens)
# testSummary: Inhibition of recombinant full length human Rsk1 using KKKNRTLSVA as substrate incubated for 40 mins in presence of [gamma33P]ATP by scintillation counting based radiometry assay
measurementKind: IC50

**Query** What does the data say about its IC50? Entry: CC(C)n1cc(C(=O)Nc2ccc(Oc3ccnc(NC(=O)C4CC4)c3)c(F)c2)c(=O)n(-c2ccc(F)cc2)c1=O
**Result** > 1000 nM

====

# systemTested: Proto-oncogene tyrosine-protein kinase receptor Ret (Homo sapiens, UniProt P07949)
# Sequence (P07949 whole entry): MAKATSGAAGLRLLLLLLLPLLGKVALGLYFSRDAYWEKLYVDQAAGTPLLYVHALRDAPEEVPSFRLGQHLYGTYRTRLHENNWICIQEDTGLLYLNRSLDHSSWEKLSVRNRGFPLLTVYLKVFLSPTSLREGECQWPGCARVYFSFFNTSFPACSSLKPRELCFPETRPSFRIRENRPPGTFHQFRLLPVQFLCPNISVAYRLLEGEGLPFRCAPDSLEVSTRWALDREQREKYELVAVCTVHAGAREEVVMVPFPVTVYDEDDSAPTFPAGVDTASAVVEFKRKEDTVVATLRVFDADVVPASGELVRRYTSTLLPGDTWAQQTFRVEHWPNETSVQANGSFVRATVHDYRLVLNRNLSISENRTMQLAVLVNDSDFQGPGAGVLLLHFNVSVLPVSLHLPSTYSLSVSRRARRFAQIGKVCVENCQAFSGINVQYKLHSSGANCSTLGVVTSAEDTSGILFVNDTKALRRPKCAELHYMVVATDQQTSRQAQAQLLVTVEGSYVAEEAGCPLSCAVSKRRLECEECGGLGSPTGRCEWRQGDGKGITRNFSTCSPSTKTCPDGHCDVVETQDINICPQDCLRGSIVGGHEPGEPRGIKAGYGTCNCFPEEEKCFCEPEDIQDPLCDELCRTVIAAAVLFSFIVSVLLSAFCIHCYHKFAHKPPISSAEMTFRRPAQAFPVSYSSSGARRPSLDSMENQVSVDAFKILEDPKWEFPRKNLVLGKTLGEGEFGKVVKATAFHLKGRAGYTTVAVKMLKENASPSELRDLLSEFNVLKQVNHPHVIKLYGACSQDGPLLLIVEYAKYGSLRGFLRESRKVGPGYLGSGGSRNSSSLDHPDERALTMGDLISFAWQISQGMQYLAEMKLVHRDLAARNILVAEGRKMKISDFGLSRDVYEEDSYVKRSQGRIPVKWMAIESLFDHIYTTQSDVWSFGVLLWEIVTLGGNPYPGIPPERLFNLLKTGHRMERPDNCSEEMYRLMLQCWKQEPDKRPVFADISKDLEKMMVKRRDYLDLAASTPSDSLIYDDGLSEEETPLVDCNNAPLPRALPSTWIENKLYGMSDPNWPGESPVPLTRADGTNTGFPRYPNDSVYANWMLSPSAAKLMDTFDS
# testSummary: Inhibition of recombinant human Ret (658 to end residues) using KKKSPGEYVNIEFG as substrate incubated for 40 mins in presence of [gamma33P]ATP by scintillation counting based radiometry assay
pIC50: −log10 of the molar value.
measurementKind: pIC50

**Query** What does the data say about its pIC50? Entry: CC(C)n1cc(C(=O)Nc2ccc(Oc3ccnc(NC(=O)C4CC4)c3)c(F)c2)c(=O)n(-c2ccc(F)cc2)c1=O
**Result** < 6.00

====

# systemTested: Hepatocyte growth factor receptor (Homo sapiens)
# Sequence (P08581 whole entry): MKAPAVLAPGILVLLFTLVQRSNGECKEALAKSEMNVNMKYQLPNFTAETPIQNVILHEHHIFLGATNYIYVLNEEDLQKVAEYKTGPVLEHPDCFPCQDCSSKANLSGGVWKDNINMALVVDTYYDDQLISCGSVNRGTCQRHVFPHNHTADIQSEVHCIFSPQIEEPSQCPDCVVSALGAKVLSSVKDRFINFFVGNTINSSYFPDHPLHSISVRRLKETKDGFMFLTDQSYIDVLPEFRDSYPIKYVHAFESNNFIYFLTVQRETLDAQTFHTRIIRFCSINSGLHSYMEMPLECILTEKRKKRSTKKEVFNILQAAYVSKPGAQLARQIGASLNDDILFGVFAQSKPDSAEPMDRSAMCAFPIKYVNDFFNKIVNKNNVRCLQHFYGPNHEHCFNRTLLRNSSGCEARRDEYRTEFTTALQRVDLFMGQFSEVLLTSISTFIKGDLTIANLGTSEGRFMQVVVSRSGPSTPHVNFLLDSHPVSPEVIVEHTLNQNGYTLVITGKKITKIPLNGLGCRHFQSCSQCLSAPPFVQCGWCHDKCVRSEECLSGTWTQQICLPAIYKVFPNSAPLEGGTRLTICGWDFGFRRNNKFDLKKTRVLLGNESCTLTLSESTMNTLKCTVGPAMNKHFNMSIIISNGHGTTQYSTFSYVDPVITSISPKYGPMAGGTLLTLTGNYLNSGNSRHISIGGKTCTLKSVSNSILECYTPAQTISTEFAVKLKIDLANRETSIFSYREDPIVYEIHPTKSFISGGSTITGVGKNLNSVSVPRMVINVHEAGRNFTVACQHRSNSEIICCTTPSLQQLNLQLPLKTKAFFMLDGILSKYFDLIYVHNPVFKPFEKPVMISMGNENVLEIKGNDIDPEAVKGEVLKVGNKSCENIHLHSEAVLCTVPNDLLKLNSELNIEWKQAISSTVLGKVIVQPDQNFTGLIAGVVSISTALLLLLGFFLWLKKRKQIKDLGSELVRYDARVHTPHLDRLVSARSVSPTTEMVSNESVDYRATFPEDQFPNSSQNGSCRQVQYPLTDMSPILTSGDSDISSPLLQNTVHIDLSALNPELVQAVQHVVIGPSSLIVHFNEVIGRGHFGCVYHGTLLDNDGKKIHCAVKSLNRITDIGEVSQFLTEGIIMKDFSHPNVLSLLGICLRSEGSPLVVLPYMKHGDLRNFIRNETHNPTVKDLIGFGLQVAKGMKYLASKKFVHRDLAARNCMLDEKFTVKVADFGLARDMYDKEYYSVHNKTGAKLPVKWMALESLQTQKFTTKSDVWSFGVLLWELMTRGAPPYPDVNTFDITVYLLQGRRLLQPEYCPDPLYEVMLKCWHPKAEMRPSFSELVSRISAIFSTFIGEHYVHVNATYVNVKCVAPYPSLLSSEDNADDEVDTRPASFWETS
# testSummary: Inhibition of recombinant human MET (974 to end residues) using KKKGQEEEYVFIE as substrate incubated for 40 mins in presence of [gamma-33ATP by scintillation counting based radiometry assay
measurementKind: pIC50
Scale explanation: pIC50 corresponds to minus log10 of a concentration expressed in moles per litre.

**Query** Lookup: pIC50 / Hepatocyte growth factor receptor (Homo sapiens) / CC(C)n1cc(C(=O)Nc2ccc(Oc3ccnc(NC(=O)C4CC4)c3)c(F)c2)c(=O)n(-c2ccc(F)cc2)c1=O
**Result** 9.10

====

# systemTested: Focal adhesion kinase 1 (Homo sapiens, UniProt Q05397)
# testSummary: Inhibition of human recombinant FAK1 (411 to 686 residues) using EEEEYEEEEEEYY as substrate incubated for 40 mins in presence of [gamma-33ATP] by radiometric scintillation counting analysis
measurementKind: IC50

**Query** Lookup: IC50 / Focal adhesion kinase 1 (Homo sapiens, UniProt Q05397) / CC(C)n1cc(C(=O)Nc2ccc(Oc3ccnc(NC(=O)C4CC4)c3)c(F)c2)c(=O)n(-c2ccc(F)cc2)c1=O
**Result** > 1000 nM

====

# systemTested: Ephrin type-A receptor 2 (Homo sapiens, UniProt P29317)
# testSummary: Inhibition of recombinant human EphA2 (596 to 900 residues) using poly(Glu, Tyr) 4:1 as substrate incubated for 40 mins in presence of [gamma-33ATP] by scintillation counting based radiometry assay
measurementKind: IC50

**Query** What does the data say about its IC50? Entry: CC(C)n1cc(C(=O)Nc2ccc(Oc3ccnc(NC(=O)C4CC4)c3)c(F)c2)c(=O)n(-c2ccc(F)cc2)c1=O
**Result** > 100 nM

====

# systemTested: Tyrosine-protein kinase ABL1 (Homo sapiens)
# Sequence (P00519 whole entry): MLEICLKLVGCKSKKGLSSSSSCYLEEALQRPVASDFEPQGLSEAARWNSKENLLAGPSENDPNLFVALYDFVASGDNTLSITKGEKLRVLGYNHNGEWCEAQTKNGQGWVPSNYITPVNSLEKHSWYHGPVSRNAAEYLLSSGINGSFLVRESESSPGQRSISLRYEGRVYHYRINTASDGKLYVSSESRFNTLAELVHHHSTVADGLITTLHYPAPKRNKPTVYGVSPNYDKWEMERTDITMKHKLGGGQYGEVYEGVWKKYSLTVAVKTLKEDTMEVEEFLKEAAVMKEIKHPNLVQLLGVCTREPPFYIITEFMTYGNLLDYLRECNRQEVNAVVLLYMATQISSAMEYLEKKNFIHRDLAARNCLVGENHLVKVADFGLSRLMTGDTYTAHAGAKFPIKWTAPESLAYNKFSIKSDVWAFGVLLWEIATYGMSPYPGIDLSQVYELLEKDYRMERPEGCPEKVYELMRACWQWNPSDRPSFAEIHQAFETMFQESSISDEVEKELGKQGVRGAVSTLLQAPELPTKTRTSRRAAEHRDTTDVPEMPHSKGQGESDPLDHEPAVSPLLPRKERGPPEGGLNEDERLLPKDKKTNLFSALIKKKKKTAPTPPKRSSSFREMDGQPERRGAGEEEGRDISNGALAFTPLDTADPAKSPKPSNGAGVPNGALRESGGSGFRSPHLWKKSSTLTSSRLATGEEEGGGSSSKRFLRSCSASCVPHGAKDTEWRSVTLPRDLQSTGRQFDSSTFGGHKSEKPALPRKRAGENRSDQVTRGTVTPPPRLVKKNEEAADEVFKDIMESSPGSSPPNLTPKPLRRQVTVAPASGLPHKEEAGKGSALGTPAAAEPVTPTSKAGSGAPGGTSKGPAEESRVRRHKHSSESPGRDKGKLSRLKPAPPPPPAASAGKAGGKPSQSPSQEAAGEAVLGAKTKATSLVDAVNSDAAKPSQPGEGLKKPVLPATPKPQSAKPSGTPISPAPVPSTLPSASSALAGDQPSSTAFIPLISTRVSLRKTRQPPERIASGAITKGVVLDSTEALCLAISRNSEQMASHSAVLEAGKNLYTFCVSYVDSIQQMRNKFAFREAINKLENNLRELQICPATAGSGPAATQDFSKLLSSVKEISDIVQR
# testSummary: Inhibition of human recombinant ABL (27 to end residues) using EAIYAAPFAKKK as substrate incubated for 40 mins in presence of [gamma33P-ATP] by radiometric scintillation counting analysis
measurementKind: IC50

**Query** What does the data say about its IC50? Entry: CC(C)n1cc(C(=O)Nc2ccc(Oc3ccnc(NC(=O)C4CC4)c3)c(F)c2)c(=O)n(-c2ccc(F)cc2)c1=O
**Result** > 1000 nM

====

# systemTested: CDK2/Cyclin A2 (Homo sapiens, UniProt P24941)
# testSummary: Inhibition of full length human recombinant CDK2/Cyclin A using histone H1 as substrate incubated for 40 mins in presence of [gamma-33ATP] by radiometric scintillation counting analysis
measurementKind: IC50

**Query** What does the data say about its IC50? Entry: CC(C)n1cc(C(=O)Nc2ccc(Oc3ccnc(NC(=O)C4CC4)c3)c(F)c2)c(=O)n(-c2ccc(F)cc2)c1=O
**Result** > 1000 nM

====

# testSummary: AUC(0 to t) in ICR mouse at 1 mg/kg, iv measured upto 24 hrs by LC-MS analysis
# Assay type: ADME, organism-based
# Set-up: route intravenous, dose 1 mg/kg, time <=24
# studyConditions: in vivo
measurementKind: AUC(0-t) at 24 h (ng·h/mL)
Report the figure in ng·h/mL without appending any unit label.

**Query** What does the data say about its AUC(0-t) at 24 h? Entry: CC(C)n1cc(C(=O)Nc2ccc(Oc3ccnc(NC(=O)C4CC4)c3)c(F)c2)c(=O)n(-c2ccc(F)cc2)c1=O
**Result** 7010

====

# testSummary: AUC(0 to t) in ICR mouse at 3 mg/kg, po measured upto 24 hrs by LC-MS analysis
# Type: ADME, organism-based
# Design: route oral, dose 3 mg/kg, time <=24
# studyConditions: in vivo
measurementKind: AUC(0-t) at 24 h (ng·h/mL)
Report the figure in ng·h/mL without appending any unit label.

**Query** What does the data say about its AUC(0-t) at 24 h? Entry: CC(C)n1cc(C(=O)Nc2ccc(Oc3ccnc(NC(=O)C4CC4)c3)c(F)c2)c(=O)n(-c2ccc(F)cc2)c1=O
**Result** 24000

====

# testSummary: Cmax in ICR mouse at 3 mg/kg, po measured upto 24 hrs by LC-MS analysis
# Type: ADME, organism-based
# Design: route oral, dose 3 mg/kg, time <=24
# studyConditions: in vivo
measurementKind: Cmax (ng/mL)
Report the figure in ng/mL without appending any unit label.

**Query** What does the data say about its Cmax? Entry: CC(C)n1cc(C(=O)Nc2ccc(Oc3ccnc(NC(=O)C4CC4)c3)c(F)c2)c(=O)n(-c2ccc(F)cc2)c1=O
**Result** 2990

====

# System: KMS-11
# testSummary: Antiproliferative activity against human KMS-11 cells incubated for 72 hrs by SRB or CCK8 assay
# Format: functional, cell-based
# studyConditions: KMS-11, 72 h
measurementKind: IC50

**Query** What does the data say about its IC50? Entry: CC(C)n1cc(C(=O)Nc2ccc(Oc3ccnc(NC(=O)C4CC4)c3)c(F)c2)c(=O)n(-c2ccc(F)cc2)c1=O
**Result** > 10 µM

====

# System: HT-29
# testSummary: Antiproliferative activity against human HT-29 cells incubated for 72 hrs by SRB or CCK8 assay
# Type: functional, cell-based
# studyConditions: HT-29, 72 h
measurementKind: IC50

**Query** What does the data say about its IC50? Entry: CC(C)n1cc(C(=O)Nc2ccc(Oc3ccnc(NC(=O)C4CC4)c3)c(F)c2)c(=O)n(-c2ccc(F)cc2)c1=O
**Result** > 10 µM

====

# Test system: MDA-MB-231
# testSummary: Antiproliferative activity against human MDA-MB-231 cells incubated for 72 hrs by SRB or CCK8 assay
# Assay type: functional, cell-based
# studyConditions: MDA-MB-231, 72 h
measurementKind: IC50

**Query** What does the data say about its IC50? Entry: CC(C)n1cc(C(=O)Nc2ccc(Oc3ccnc(NC(=O)C4CC4)c3)c(F)c2)c(=O)n(-c2ccc(F)cc2)c1=O
**Result** > 10 µM

====

# testSummary: Cmax in Sprague-Dawley rat at 3 mg/kg, po measured upto 24 hrs by LC-MS analysis
# Assay type: ADME, organism-based
# Set-up: route oral, dose 3 mg/kg, time <=24
# studyConditions: in vivo
Property: Cmax; scope: individual compounds
Report the figure in ng/mL without appending any unit label.

[[record]]
smilesstring = "CC(C)n1cc(C(=O)Nc2ccc(Oc3ccnc(-c4cn[nH]c4)c3)c(F)c2)c(=O)n(-c2ccc(F)cc2)c1=O"
measurementkind = "Cmax"
unittag = "ng/mL"
numericvalue = 2570


Now consider a different compound.
**Query** What does the data say about its Cmax? Entry: CC(C)n1cc(C(=O)Nc2ccc(Oc3ccnc(NC(=O)C4CC4)c3)c(F)c2)c(=O)n(-c2ccc(F)cc2)c1=O
**Result** 4560

====

# systemTested: Cyclin-dependent kinase 1/cyclin B1 (Homo sapiens, UniProt P06493)
# Sequence (P06493 whole entry): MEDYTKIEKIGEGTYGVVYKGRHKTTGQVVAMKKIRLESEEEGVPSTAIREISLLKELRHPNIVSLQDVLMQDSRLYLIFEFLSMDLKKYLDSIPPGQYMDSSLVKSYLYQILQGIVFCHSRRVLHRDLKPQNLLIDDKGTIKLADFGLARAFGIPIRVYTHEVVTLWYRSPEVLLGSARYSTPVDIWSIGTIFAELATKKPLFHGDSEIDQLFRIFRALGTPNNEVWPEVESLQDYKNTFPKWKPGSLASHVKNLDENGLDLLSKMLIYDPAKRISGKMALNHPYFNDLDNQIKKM
# Sequence (P14635 whole entry, further chain): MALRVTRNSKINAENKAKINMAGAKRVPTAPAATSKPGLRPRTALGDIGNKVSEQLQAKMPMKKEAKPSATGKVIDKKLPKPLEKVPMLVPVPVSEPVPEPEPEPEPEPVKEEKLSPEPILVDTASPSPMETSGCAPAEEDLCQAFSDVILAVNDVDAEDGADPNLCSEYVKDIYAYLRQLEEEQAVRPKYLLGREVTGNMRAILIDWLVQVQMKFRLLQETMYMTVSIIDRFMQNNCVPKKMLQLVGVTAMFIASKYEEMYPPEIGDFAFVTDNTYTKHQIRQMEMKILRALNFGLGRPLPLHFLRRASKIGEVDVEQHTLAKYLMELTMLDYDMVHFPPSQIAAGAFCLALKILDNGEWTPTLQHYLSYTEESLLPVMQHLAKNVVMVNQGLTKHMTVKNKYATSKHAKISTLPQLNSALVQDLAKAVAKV
# testSummary: Inhibition of recombinant full length human CDK1/CyclinB using Histone H1 as substrate incubated for 40 mins in presence of [gamma-33ATP] by scintillation counting based radiometry assay
measurementKind: IC50

**Query** What does the data say about its IC50? Entry: CC(C)n1cc(C(=O)Nc2ccc(Oc3ccnc(NC(=O)C4CC4)c3)c(F)c2)c(=O)n(-c2ccc(F)cc2)c1=O
**Result** > 1000 nM

Reference source for all entries: ChEMBL document CHEMBL4823249
